experimental-target: UniProtKB Q9BY41
Sequence (Q9BY41 whole entry): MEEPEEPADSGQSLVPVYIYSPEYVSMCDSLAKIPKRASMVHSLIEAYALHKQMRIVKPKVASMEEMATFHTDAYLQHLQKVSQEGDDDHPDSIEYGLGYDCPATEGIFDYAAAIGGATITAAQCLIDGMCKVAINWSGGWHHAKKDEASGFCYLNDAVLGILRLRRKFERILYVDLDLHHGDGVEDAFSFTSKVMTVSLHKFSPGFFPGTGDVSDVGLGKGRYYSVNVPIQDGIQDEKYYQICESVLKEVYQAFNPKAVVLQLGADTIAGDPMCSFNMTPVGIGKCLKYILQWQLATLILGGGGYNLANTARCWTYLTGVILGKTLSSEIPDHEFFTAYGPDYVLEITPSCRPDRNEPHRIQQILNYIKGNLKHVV
procedure-text: Inhibition of recombinant human full-length C-terminal His-tagged HDAC8 expressed in baculovirus infected Sf9 insect cells using Ac-Leu-Gly-Lys(Tfa)-AMC as substrate measured after 30 mins by fluorescence assay
Give pIC50 for every item shown.
// pIC50 is dimensionless: -log10 of concentration (M)

Ask: If you can, please state the reported pIC50 value of COc1cc(OC)c2c(N3CCS(=O)(=O)CC3)nc(-c3cc(C)c(OCCCCCC(=O)NO)c(C)c3)nc2c1 .
Reply: 6.39

Ask: If you can, please state the reported pIC50 value of COc1cc(OC)c2c(N3CCN(C)CC3)nc(-c3cc(C)c(OCCCCCC(=O)NO)c(C)c3)nc2c1 .
Reply: 6.42

----------
procedure-text: AUC (0 to t) in Beagle dog at 20 mg/kg, po by LC-MS/MS analysis
Format: ADME, organism-based, Canis lupus familiaris
Set-up: dose 20 mg/kg
measurement-parameters: in vivo
measured-quantity: AUC(0-t) (µg·h/mL)
Give the value, in units of µg·h/mL, as a plain number.

Ask: If you can, please state the reported AUC(0-t) value of COc1cc(OC)c2c(N3CCN(C)CC3)nc(-c3cc(C)c(OCCCCCC(=O)NO)c(C)c3)nc2c1 .
Reply: 1.28

Ask: If you can, please state the reported AUC(0-t) value of O=C(CCCCCCC(=O)Nc1ccccc1)NO [VORINOSTAT] .
Reply: 0.965

----------
experimental-target: Histone deacetylase 9 (Homo sapiens, UniProt Q9UKV0)
Sequence (Q9UKV0 whole entry, the tested form may be a part): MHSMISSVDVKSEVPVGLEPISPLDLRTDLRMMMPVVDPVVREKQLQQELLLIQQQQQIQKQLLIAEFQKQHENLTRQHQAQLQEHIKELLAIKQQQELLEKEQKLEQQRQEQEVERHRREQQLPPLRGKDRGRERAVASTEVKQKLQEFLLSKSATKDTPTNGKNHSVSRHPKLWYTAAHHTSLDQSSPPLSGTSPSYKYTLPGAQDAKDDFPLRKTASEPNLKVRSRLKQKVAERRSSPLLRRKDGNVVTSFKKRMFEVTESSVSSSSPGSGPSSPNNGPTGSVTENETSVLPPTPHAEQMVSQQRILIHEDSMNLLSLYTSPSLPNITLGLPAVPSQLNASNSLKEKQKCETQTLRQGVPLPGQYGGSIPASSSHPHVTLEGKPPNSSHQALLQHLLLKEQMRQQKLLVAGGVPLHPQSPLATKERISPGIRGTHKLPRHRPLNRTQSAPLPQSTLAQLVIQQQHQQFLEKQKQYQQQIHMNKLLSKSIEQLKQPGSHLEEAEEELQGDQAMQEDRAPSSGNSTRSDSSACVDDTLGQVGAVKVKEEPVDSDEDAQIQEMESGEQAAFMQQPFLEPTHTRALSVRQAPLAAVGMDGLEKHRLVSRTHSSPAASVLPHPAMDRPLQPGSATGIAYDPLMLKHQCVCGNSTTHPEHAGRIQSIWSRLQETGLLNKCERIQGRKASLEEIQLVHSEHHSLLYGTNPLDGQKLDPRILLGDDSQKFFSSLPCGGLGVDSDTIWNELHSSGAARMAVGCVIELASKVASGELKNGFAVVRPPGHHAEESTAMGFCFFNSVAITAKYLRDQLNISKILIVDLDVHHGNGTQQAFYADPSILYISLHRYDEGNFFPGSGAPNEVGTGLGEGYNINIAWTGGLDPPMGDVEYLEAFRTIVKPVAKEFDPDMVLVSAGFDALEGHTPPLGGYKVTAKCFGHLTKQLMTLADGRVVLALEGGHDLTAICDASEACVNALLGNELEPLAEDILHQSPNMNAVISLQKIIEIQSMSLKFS
procedure-text: Inhibition of recombinant human full-length N-terminal GST-tagged HDAC9 (1 to 1069 residues) expressed in wheat germ expression system using Ac-Leu-Gly-Lys(Tfa)-AMC as substrate measured after 30 mins by fluorescence assay
measured-quantity: IC50

Ask: If you can, please state the reported IC50 value of COc1cc(OC)c2c(N3CCN(C)CC3)nc(-c3cc(C)c(OCCCCCC(=O)NO)c(C)c3)nc2c1 .
Reply: > 1000 nM

Ask: If you can, please state the reported IC50 value of COc1cc(OC)c2c(N3CCS(=O)(=O)CC3)nc(-c3cc(C)c(OCCCCCC(=O)NO)c(C)c3)nc2c1 .
Reply: > 1000 nM

----------
Tested on: MDA-MB-231
procedure-text: Antiproliferative activity against human MDA-MB-231 cells measured after 72 hrs by MTT assay
Assay type: functional, cell-based
measurement-parameters: MDA-MB-231, 72 h
measured-quantity: pIC50
// pIC50 is dimensionless: -log10 of concentration (M)

Ask: If you can, please state the reported pIC50 value of COc1cc(OC)c2c(N3CCS(=O)(=O)CC3)nc(-c3cc(C)c(OCCCCCC(=O)NO)c(C)c3)nc2c1 .
Reply: 6.05

----------
experimental-target: Histone deacetylase 1 (Homo sapiens, UniProt Q13547)
Sequence (Q13547 whole entry): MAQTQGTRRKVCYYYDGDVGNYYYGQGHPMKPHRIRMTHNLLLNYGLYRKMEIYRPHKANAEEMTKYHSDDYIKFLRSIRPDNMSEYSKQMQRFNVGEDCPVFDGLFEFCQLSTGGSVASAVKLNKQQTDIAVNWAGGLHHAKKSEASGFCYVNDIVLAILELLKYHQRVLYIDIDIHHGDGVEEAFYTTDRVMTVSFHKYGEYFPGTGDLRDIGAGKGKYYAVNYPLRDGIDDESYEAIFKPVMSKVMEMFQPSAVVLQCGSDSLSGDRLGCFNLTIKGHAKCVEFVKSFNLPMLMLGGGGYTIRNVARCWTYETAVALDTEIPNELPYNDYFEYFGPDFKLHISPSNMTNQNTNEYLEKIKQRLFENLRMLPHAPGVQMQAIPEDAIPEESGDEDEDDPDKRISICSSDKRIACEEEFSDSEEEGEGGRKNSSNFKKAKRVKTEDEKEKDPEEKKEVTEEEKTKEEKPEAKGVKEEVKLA
procedure-text: Inhibition of recombinant human His-tagged HDAC1 expressed in insect cells using Ac-Leu-Gly-Lys(Ac)-AMC as substrate measured after 30 mins by fluorescence assay
measured-quantity: pIC50
// pIC50 is dimensionless: -log10 of concentration (M)

Ask: If you can, please state the reported pIC50 value of COc1cc(OC)c2c(N3CCS(=O)(=O)CC3)nc(-c3cc(C)c(OCCCCCC(=O)NO)c(C)c3)nc2c1 .
Reply: 7.00

Ask: If you can, please state the reported pIC50 value of COc1cc(OC)c2c(N3CCN(C)CC3)nc(-c3cc(C)c(OCCCCCC(=O)NO)c(C)c3)nc2c1 .
Reply: 7.06

----------
experimental-target: Histone deacetylase 5 (Homo sapiens)
Sequence (Q9UQL6 whole entry): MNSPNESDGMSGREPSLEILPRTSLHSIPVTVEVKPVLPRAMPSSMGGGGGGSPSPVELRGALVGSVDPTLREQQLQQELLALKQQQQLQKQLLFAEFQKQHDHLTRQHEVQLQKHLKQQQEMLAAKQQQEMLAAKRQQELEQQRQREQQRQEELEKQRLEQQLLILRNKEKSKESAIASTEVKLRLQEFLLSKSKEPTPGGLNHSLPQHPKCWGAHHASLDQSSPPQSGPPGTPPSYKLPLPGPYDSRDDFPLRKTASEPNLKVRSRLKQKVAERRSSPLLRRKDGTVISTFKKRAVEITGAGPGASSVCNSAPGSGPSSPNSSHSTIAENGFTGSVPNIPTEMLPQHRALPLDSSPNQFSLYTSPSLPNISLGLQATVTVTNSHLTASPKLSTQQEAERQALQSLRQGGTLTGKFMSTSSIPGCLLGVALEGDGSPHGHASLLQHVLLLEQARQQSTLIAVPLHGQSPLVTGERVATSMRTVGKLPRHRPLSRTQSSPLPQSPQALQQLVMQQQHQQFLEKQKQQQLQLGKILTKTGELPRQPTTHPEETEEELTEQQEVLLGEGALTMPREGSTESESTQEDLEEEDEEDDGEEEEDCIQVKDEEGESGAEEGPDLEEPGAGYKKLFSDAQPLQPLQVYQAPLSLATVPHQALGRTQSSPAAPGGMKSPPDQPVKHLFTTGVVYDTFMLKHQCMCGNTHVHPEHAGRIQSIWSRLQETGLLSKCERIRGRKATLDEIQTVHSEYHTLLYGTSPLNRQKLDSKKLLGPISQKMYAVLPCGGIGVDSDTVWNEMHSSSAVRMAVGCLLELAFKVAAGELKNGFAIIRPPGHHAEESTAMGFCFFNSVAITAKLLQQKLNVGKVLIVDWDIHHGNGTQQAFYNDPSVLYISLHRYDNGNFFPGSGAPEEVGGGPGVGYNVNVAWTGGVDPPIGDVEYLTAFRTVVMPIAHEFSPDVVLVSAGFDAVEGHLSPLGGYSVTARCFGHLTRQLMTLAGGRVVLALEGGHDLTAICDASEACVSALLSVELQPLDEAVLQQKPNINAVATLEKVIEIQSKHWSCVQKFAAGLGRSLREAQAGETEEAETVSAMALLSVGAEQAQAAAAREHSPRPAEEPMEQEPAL
procedure-text: Inhibition of recombinant human full-length N-terminal GST-tagged HDAC5 expressed in baculovirus infected Sf9 insect cells using AcLeu-Gly-Lys(Tfa)-AMC as substrate measured after 30 mins by fluorescence assay
measured-quantity: pIC50
// pIC50 is dimensionless: -log10 of concentration (M)

Ask: If you can, please state the reported pIC50 value of COc1cc(OC)c2c(N3CCS(=O)(=O)CC3)nc(-c3cc(C)c(OCCCCCC(=O)NO)c(C)c3)nc2c1 .
Reply: 6.16

----------
experimental-target: Polyamine deacetylase HDAC10 (Homo sapiens)
Sequence (Q969S8 whole entry): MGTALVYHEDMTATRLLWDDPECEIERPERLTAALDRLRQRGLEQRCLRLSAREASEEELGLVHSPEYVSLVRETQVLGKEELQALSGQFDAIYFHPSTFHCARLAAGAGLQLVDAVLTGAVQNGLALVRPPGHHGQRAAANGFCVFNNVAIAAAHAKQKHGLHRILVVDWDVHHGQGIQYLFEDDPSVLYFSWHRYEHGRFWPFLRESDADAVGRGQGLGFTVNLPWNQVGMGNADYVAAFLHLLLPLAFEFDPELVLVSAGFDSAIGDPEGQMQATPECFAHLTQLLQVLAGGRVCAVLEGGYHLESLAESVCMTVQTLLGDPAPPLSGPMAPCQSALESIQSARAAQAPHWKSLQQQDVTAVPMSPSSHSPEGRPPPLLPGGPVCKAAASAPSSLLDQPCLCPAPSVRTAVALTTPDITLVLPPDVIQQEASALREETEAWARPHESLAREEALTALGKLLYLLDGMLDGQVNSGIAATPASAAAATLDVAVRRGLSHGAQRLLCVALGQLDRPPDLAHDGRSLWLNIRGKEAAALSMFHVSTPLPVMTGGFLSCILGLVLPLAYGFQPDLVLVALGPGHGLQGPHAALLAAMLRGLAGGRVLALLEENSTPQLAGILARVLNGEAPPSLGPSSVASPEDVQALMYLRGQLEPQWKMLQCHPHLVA
procedure-text: Inhibition of recombinant human C-terminal His-tagged HDAC10 expressed in baculovirus infected Sf9 insect cells using Ac-Arg-His-Lys(Ac)-Lys(Ac)-AMC as substrate measured after 30 mins by fluorescence assay
measured-quantity: IC50 (nM)
Give the value, in units of nM, as a plain number.

Ask: If you can, please state the reported IC50 value of COc1cc(OC)c2c(N3CCS(=O)(=O)CC3)nc(-c3cc(C)c(OCCCCCC(=O)NO)c(C)c3)nc2c1 .
Reply: 78.2

----------
experimental-target: Protein deacetylase HDAC6 (Homo sapiens)
Sequence (Q9UBN7 whole entry): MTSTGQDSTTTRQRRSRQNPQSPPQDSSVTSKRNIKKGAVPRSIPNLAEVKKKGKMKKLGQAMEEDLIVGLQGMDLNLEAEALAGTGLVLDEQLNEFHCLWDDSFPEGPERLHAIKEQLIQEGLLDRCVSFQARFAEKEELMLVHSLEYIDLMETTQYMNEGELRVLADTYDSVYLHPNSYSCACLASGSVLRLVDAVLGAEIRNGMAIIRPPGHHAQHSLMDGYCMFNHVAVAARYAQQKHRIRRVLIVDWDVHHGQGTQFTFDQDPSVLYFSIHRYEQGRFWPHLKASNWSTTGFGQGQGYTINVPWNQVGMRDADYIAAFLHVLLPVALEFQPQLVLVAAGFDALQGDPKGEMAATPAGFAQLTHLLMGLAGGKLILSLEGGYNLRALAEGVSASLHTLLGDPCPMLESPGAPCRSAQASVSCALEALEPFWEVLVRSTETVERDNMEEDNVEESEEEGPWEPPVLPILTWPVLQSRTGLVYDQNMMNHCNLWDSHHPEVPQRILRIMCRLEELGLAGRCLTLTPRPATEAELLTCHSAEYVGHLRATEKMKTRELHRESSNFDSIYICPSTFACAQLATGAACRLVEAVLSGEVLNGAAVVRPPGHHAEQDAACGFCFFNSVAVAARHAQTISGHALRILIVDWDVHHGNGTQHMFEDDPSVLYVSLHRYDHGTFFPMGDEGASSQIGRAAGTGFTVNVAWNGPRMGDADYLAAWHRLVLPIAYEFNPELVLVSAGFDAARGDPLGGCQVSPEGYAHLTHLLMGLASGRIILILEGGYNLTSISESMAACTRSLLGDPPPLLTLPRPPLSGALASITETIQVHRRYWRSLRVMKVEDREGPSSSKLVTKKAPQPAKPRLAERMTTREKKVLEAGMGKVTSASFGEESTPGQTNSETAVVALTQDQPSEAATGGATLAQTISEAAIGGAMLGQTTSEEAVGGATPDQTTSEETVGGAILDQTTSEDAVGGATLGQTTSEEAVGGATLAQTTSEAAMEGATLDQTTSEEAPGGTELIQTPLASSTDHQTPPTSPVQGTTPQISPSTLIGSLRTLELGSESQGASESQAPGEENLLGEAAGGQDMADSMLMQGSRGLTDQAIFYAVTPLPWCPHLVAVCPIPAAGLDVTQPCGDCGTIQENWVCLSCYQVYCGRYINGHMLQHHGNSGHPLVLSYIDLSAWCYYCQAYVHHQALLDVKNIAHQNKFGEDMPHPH
procedure-text: Inhibition of recombinant human His-tagged HDAC6 expressed in baculovirus infected insect cells using Ac-Leu-Gly-Lys(Ac)-AMC as substrate measured after 30 mins by fluorescence assay
measured-quantity: IC50 (nM)
Give the value, in units of nM, as a plain number.

Ask: If you can, please state the reported IC50 value of COc1cc(OC)c2c(N3CCOC[C@@H]3C)nc(-c3cc(C)c(OCCCC(=O)NO)c(C)c3)nc2c1 .
Reply: 360

Ask: If you can, please state the reported IC50 value of COc1cc(OC)c2c(N3CCS(=O)(=O)CC3)nc(-c3cc(C)c(OCCCC(=O)NO)c(C)c3)nc2c1 .
Reply: 850

Ask: If you can, please state the reported IC50 value of COc1cc(OC)c2c(N3CCOC[C@H]3C)nc(-c3cc(C)c(OCCCCC(=O)NO)c(C)c3)nc2c1 .
Reply: 220

----------
Give pIC50 for every item shown.
experimental-target: Protein deacetylase HDAC6 (Homo sapiens, UniProt Q9UBN7)
procedure-text: Inhibition of recombinant human His-tagged HDAC6 expressed in baculovirus infected insect cells using Ac-Leu-Gly-Lys(Ac)-AMC as substrate measured after 30 mins by fluorescence assay
// pIC50 is dimensionless: -log10 of concentration (M)

Ask: If you can, please state the reported pIC50 value of COc1cc(OC)c2c(N3CCOCC3)nc(-c3cc(C)c(OCCCCC(=O)NO)c(C)c3)nc2c1 .
Reply: 6.68

Ask: If you can, please state the reported pIC50 value of COc1cc(OC)c2c(N3CCOCC3)nc(-c3cc(C)c(OCCCCCC(=O)NO)c(C)c3)nc2c1 .
Reply: 6.92

Ask: If you can, please state the reported pIC50 value of COc1cc(OC)c2c(N3CCSCC3)nc(-c3cc(C)c(OCCCC(=O)NO)c(C)c3)nc2c1 .
Reply: 6.38

Ask: If you can, please state the reported pIC50 value of COc1cc(OC)c2c(N3CCSCC3)nc(-c3cc(C)c(OCCCCCC(=O)NO)c(C)c3)nc2c1 .
Reply: 6.89

Ask: If you can, please state the reported pIC50 value of COc1cc(OC)c2c(N3CCSCC3)nc(-c3cc(C)c(OCCCCC(=O)NO)c(C)c3)nc2c1 .
Reply: 6.54

Ask: If you can, please state the reported pIC50 value of COc1cc(OC)c2c(N3CCS(=O)(=O)CC3)nc(-c3cc(C)c(OCCCCC(=O)NO)c(C)c3)nc2c1 .
Reply: 6.89

Ask: If you can, please state the reported pIC50 value of COc1cc(OC)c2c(N3CCOC[C@H]3C)nc(-c3cc(C)c(OCCCC(=O)NO)c(C)c3)nc2c1 .
Reply: 6.48

Ask: If you can, please state the reported pIC50 value of COc1cc(OC)c2c(N3CCS(=O)(=O)CC3)nc(-c3cc(C)c(OCCCCCC(=O)NO)c(C)c3)nc2c1 .
Reply: 7.26

Ask: If you can, please state the reported pIC50 value of COc1cc(OC)c2c(N3CCOC[C@H]3C)nc(-c3cc(C)c(OCCCCCC(=O)NO)c(C)c3)nc2c1 .
Reply: 6.99

Ask: If you can, please state the reported pIC50 value of COc1cc(OC)c2c(N3CCOC[C@@H]3C)nc(-c3cc(C)c(OCCCCCC(=O)NO)c(C)c3)nc2c1 .
Reply: 7.01

Ask: If you can, please state the reported pIC50 value of COc1cc(OC)c2c(N3CCOCC3)nc(-c3cc(C)c(OCCCC(=O)NO)c(C)c3)nc2c1 .
Reply: 6.46

Ask: If you can, please state the reported pIC50 value of COc1cc(OC)c2c(N3CCOC[C@@H]3C)nc(-c3cc(C)c(OCCCCC(=O)NO)c(C)c3)nc2c1 .
Reply: 6.72
